Sourced from ChEMBL document CHEMBL3507680

- assayOverview: Human HepG2 cell viability assay in 384 well format
- Assay type: toxicity, cell-based
- Design: dose 125 nL, time 70.5 hour; concentration not given beside the values
- testSettings: HepG2 cells, read-out: Inhibition
propertyName: cytotoxicity at 70.5 h (%)
Return type: number; implicit unit %.

Consider the worked cases shown below.
compound=CCNC(=O)[C@@H]1C[C@H](N)CN1C(=O)CCc1ccccc1Cl numericreadout=-4.67
compound="Cc1nc(C)n(CC2CCCN2c2ncnc3c2CCC3)n1 (stereo not drawn)" numericreadout=15.2

Note: attention shifts to another entry.
Name the reported cytotoxicity at 70.5 h value associated with the compound "O=S(=O)(NCCCN1CCCC1)c1cc(F)cc(F)c1"
27.2

----------
- assayOverview: Human HepG2 cell viability assay in 384 well format
- Assay type: toxicity, cell-based
- Design: dose 125 nL, time 70.5 hour; concentration not given beside the values
- testSettings: HepG2 cells, read-out: Inhibition
propertyName: cytotoxicity at 70.5 h (%)
Return type: number; implicit unit %.

Consider the worked cases shown below.
compound=CN1CC(=O)c2sc(NCCc3ccccc3)nc2C1 numericreadout=30
compound="CCC(CNS(N)(=O)=O)Oc1ccccc1F (centres undefined)" numericreadout=-7.45
compound="Cc1nc(C)n(CC2CCCCN2CCS(C)(=O)=O)n1 (centres undefined)" numericreadout=12.7

Name the reported cytotoxicity at 70.5 h value associated with the compound OC1(c2cn(CC3CCN(C4CCSC4)CC3)nn2)CCCC1 (centres undefined)
1.14

----------
Reported cytotoxicity at 70.5 h by item:
- assayOverview: Human HepG2 cell viability assay in 384 well format
- Assay type: toxicity, cell-based
- Parameters: dose 125 nL, time 70.5 hour; concentration not given beside the values
- testSettings: HepG2 cells, read-out: Inhibition
Return type: number; implicit unit %.

compound=O=C(O)c1ccnc(SCc2ccccc2)c1 propertyname="cytotoxicity at 70.5 h" numericreadout=32.7
compound=CC(C)(N)c1nc(C(F)F)cc(=O)[nH]1 propertyname="cytotoxicity at 70.5 h" numericreadout=-6.3
compound=Cc1cc(C(=O)N2CC[C@H]3C[C@H](c4ccncn4)O[C@@H]3C2)no1 propertyname="cytotoxicity at 70.5 h" numericreadout=12.7

Name the reported cytotoxicity at 70.5 h value associated with the compound CCOCC1CN(C(=O)c2cscn2)Cc2cn(C)nc21 (stereo unspecified)
-4.69

Name the reported cytotoxicity at 70.5 h value associated with the compound CNc1cccc(C2CN(C(=O)CNS(C)(=O)=O)CCO2)n1 (stereo unspecified)
13

Name the reported cytotoxicity at 70.5 h value associated with the compound CC1CCN(CC(O)CNc2ccccn2)CC1 (stereo unspecified)
-6.21

Name the reported cytotoxicity at 70.5 h value associated with the compound "Cc1nc(N2CCOCC2)ncc1-c1cc(O)nc(N2CCCC2)n1"
-2.77

Name the reported cytotoxicity at 70.5 h value associated with the compound "Cc1noc(C)c1CN1CCO[C@H]2CN(C(=O)C3CCOCC3)C[C@H]21"
-0.225

Name the reported cytotoxicity at 70.5 h value associated with the compound O=C(NCc1cc[nH]n1)NC1CCCN(c2ncccn2)C1 (stereo unspecified)
-6.39

----------
- assayOverview: Human HepG2 cell viability assay in 384 well format
- Type: toxicity, cell-based
- Parameters: dose 125 nL, time 70.5 hour; concentration not given beside the values
- testSettings: HepG2 cells, read-out: Inhibition
Reported cytotoxicity at 70.5 h by item:
Return type: number; implicit unit %.

Name the reported cytotoxicity at 70.5 h value associated with the compound "CO[C@H]1COCCN(Cc2c[nH]c3ccccc23)C1"
-4

Name the reported cytotoxicity at 70.5 h value associated with the compound "O=C1COc2ccc(Cl)cc2CN1CC1CC1"
-12

----------
- assayOverview: Human HepG2 cell viability assay in 384 well format
- Type: toxicity, cell-based
- Parameters: dose 125 nL, time 70.5 hour; concentration not given beside the values
- testSettings: HepG2 cells, read-out: Inhibition
Reported cytotoxicity at 70.5 h by item:
Return type: number; implicit unit %.

Consider the worked cases shown below.
molecule="O=C(O)C(c1ccc2c(c1)OCO2)N1CCCC1 (stereo not drawn)" numericreadout=-0.492
molecule="Cc1nnc(-c2cccc(C#N)c2)n1C1CCN(C2CC2)C1=O (stereo not drawn)" numericreadout=46
molecule=CCOC(=O)[C@]12CCCN(Cc3cccs3)C[C@H]1CN(CCOC)C2 numericreadout=1.08
molecule=COCCCNC(=O)CN(C)Cc1ccc(F)cc1Cl numericreadout=9.16
molecule="Cc1cnccc1NCCNC(=O)C1CCCN(Cc2ccco2)C1 (stereo not drawn)" numericreadout=9.92

Name the reported cytotoxicity at 70.5 h value associated with the molecule "CNc1nc(CNC(=O)Nc2ccccc2-c2noc(C)n2)cs1"
7.32

Name the reported cytotoxicity at 70.5 h value associated with the molecule Cn1cnc2c1C(C(=O)N1CCCC1)N(CC1CC1)CC2 (stereo not drawn)
-9.9

Name the reported cytotoxicity at 70.5 h value associated with the molecule "OCc1ccncc1NCc1cnc(-c2ccccn2)s1"
0.118

Name the reported cytotoxicity at 70.5 h value associated with the molecule "O=C(CCN1CCOCC1)Nc1cccc(CNCc2cccs2)c1"
-8.33

----------
Reported cytotoxicity at 70.5 h by item:
- assayOverview: Human HepG2 cell viability assay in 384 well format
- Format: toxicity, cell-based
- Parameters: dose 125 nL, time 70.5 hour; concentration not given beside the values
- testSettings: HepG2 cells, read-out: Inhibition
Return type: number; implicit unit %.

Name the reported cytotoxicity at 70.5 h value associated with the compound CCc1[nH]c2c(CNC(=O)C3CCCN(C)C3)cc(C)cc2c1C (centres undefined)
-4.96

Name the reported cytotoxicity at 70.5 h value associated with the compound "Cc1cc(C)c(CNC(=O)N(C)Cc2ccc(F)cc2)c(=O)[nH]1"
18.3

Name the reported cytotoxicity at 70.5 h value associated with the compound "CCCc1nc(C)cc(NCc2ccc(S(N)(=O)=O)cc2)n1"
-16.8

----------
Reported cytotoxicity at 70.5 h by item:
- assayOverview: Human HepG2 cell viability assay in 384 well format
- Assay type: toxicity, cell-based
- Parameters: dose 125 nL, time 70.5 hour; concentration not given beside the values
- testSettings: HepG2 cells, read-out: Inhibition
Return type: number; implicit unit %.

Consider the worked cases shown below.
compound=CNC(=O)CN1CCC(c2nn(C)c(=O)n2-c2ccccc2)CC1 propertyname="cytotoxicity at 70.5 h" numericreadout=-4.2
compound=CC(C)Oc1ccc2c(NC(=O)CN(C)C)nn(CC(F)(F)F)c2c1 propertyname="cytotoxicity at 70.5 h" numericreadout=-19
compound=Cc1noc(C)c1CN1CC[C@@H]2O[C@H](COCC3CC3)CC[C@@H]21 propertyname="cytotoxicity at 70.5 h" numericreadout=-4.64
compound=COc1ccc2c(c1)[nH]c1c(N(C)CC3OCCO3)ncnc12 propertyname="cytotoxicity at 70.5 h" numericreadout=7.79
compound="COCCN1CCCC2(CCN(c3ncnc(C)c3C)C2)C1=O (configuration not stated)" propertyname="cytotoxicity at 70.5 h" numericreadout=15.5
compound="Cc1ccc(NC(=O)C2CSCN2C(=O)c2cc[nH]n2)c(C)c1 (configuration not stated)" propertyname="cytotoxicity at 70.5 h" numericreadout=-2.12

Name the reported cytotoxicity at 70.5 h value associated with the compound CCOC(=O)CC1CCCCN1C(=O)c1cnc(C)cn1 (configuration not stated)
-4.78

Name the reported cytotoxicity at 70.5 h value associated with the compound "O=C(CCc1ccncc1)N1CCc2cc(Cl)cc(Cl)c2C1"
17.4

Name the reported cytotoxicity at 70.5 h value associated with the compound "O=C(CCN1CCCC1=O)Nc1cnn(-c2ccccc2Cl)c1"
-8.1

Name the reported cytotoxicity at 70.5 h value associated with the compound CCOC(=O)N1CCC(NC(=O)c2cccc(C3CCCNC3)c2)CC1 (configuration not stated)
-24.4

Name the reported cytotoxicity at 70.5 h value associated with the compound CCN(CC)Cc1ccc(C(=O)NC2CCc3cc(Br)ccc32)o1 (configuration not stated)
-24.6

Name the reported cytotoxicity at 70.5 h value associated with the compound COC(C)(C)CNC(=O)C1CCC(=O)N(C2CCCC2)C1 (configuration not stated)
0.695

Name the reported cytotoxicity at 70.5 h value associated with the compound "Cc1cc2cccc(C(=O)N3CC[C@@H](N)[C@H](O)C3)c2o1"
-9.95

Name the reported cytotoxicity at 70.5 h value associated with the compound Cc1nc2c(NC(CC(C)(C)C)c3cccnc3)ncnc2o1 (configuration not stated)
-10.9

Name the reported cytotoxicity at 70.5 h value associated with the compound "CC(C)Oc1ncccc1CNC(=O)c1cc(C2CC2)on1"
16

Name the reported cytotoxicity at 70.5 h value associated with the compound CC1CN=C(N2CCN(C(=O)Nc3nc(-c4ccccc4)ns3)CC2)S1 (configuration not stated)
9.01

Name the reported cytotoxicity at 70.5 h value associated with the compound "CCN(Cc1ccc(Cl)c(Cl)c1)C(=O)CCn1cncn1"
-10.7

----------
- assayOverview: Human HepG2 cell viability assay in 384 well format
- Type: toxicity, cell-based
- Parameters: dose 125 nL, time 70.5 hour; concentration not given beside the values
- testSettings: HepG2 cells, read-out: Inhibition
propertyName: cytotoxicity at 70.5 h (%)
Return type: number; implicit unit %.

Consider the worked cases shown below.
compound="Cc1cccc(OCCN2CCCC(c3cc(C(N)=O)[nH]n3)C2)c1 (configuration not stated)" propertyname="cytotoxicity at 70.5 h" numericreadout=-7.94
compound=CN([C@@H]1CC[C@@H](N2CCCC2)[C@@H]1O)S(=O)(=O)c1ccccc1 propertyname="cytotoxicity at 70.5 h" numericreadout=24.7
compound=Cc1ccsc1CCNC(=O)C1(Oc2cccnc2C)CCNCC1 propertyname="cytotoxicity at 70.5 h" numericreadout=-10.2
compound=O=C(c1ccc(S(=O)(=O)NCc2ccon2)cc1)N1CCCCCC1 propertyname="cytotoxicity at 70.5 h" numericreadout=-7.49
compound=CNC(=O)c1ccc(Cn2ccnc2S(C)(=O)=O)cc1 propertyname="cytotoxicity at 70.5 h" numericreadout=-0.546

Name the reported cytotoxicity at 70.5 h value associated with the compound "O=C(Nc1cccnc1)C1CCN(c2cc(-n3ccnc3)ncn2)CC1"
-5.59

Name the reported cytotoxicity at 70.5 h value associated with the compound "CC(=O)N1CCN(c2cc(-n3cnc(C)c3C)nc(C)n2)CC1"
-6.25

Name the reported cytotoxicity at 70.5 h value associated with the compound COc1c(C)cnc(CN(C)C(=O)c2ccc(C3CCCO3)s2)c1C (configuration not stated)
-6.12

Name the reported cytotoxicity at 70.5 h value associated with the compound CCc1cc(C(=O)N2CCCC2c2nc(C)c(F)c(O)n2)on1 (configuration not stated)
4.3

Name the reported cytotoxicity at 70.5 h value associated with the compound "c1cn(-c2cncc(C3CCNCC3)n2)cn1"
-6.9

Name the reported cytotoxicity at 70.5 h value associated with the compound CCC(CO)NC(=O)c1ccc2ccc(N(C)CC3CC3)n2c1 (configuration not stated)
3.39
